test_name: Compound stability in human liver microsomes
Format: in vitro ADME
assay_context: human liver microsomes; in vivo CLint extrapolated
quantity_measured: CLint scaled at 5 μM (mL/min/kg)

Illustrative cases are given below, each with its answer.
{"chemical_string": "CC[C@H](Nc1ncnc(N)c1-c1ncn(C)n1)c1nc2cccc(Cl)c2c(=O)n1-c1ccccc1F", "endpoint_unit": "mL/min/kg", "observed": 162}
{"chemical_string": "CC[C@H](Nc1ncnc(N)c1-c1ncn(C)n1)c1nc2cccc(C)c2c(=O)n1C1CC1", "endpoint_unit": "mL/min/kg", "observed": 105}
{"chemical_string": "CC[C@H](Nc1ncnc(N)c1-c1ccon1)c1nc2cccc(C)c2c(=O)n1C1CC1", "endpoint_unit": "mL/min/kg", "observed": 91.6}
{"chemical_string": "CC[C@@H](Nc1ncnc(N)c1-c1nc(C)no1)c1nc2cccc(Cl)c2c(=O)n1C1CC1", "endpoint_unit": "mL/min/kg", "observed": 47.4}
{"chemical_string": "CC[C@H](Nc1ncnc(N)c1-c1nc(C)no1)c1nc2cccc(C)c2c(=O)n1-c1ccccc1", "endpoint_unit": "mL/min/kg", "observed": 328}
{"chemical_string": "C[C@H](Nc1ncnc(N)c1-c1nnn(C)n1)c1nc2cccc(Cl)c2c(=O)n1C1CC1", "endpoint_unit": "mL/min/kg", "observed": 41}

A. CC[C@H](Nc1ncnc(N)c1-c1ncn(C)n1)c1nc2cccc(Cl)c2c(=O)n1C1CC1
B. CC[C@H](Nc1ncnc(N)c1-c1ncnn1C)c1nc2cccc(Cl)c2c(=O)n1C1CC1
**Q:** Param metric = CLint scaled at 5 μM; output whichever of A , B has the minimum value. Response format: the label of the selected entry.
**A:** B
(B: 10.9 mL/min/kg, A: 62.1 mL/min/kg)

###

test_name: Pharmacokinetics after intravenous and oral administration in rats
Assay type: in vivo, rat
assay_context: rat, plasma, iv dosing, dose 1 mg/kg, read-out: Vss
quantity_measured: Vd (L/kg)

{"chemical_string": "CC[C@H](Nc1ncnc(N)c1-c1nc(C)no1)c1nc2cccc(F)c2c(=O)n1-c1ccccc1", "Vd / L/kg": 4.09}

A. CC[C@H](Nc1ncnc(N)c1-c1nnc(C)o1)c1nc2cccc(F)c2c(=O)n1C1CC1
B. CC[C@H](Nc1ncnc(N)c1-c1nc(C)co1)c1nc2cccc(C)c2c(=O)n1-c1ccccc1C
**Q:** Which value of Vd is numerically greater: that of A or that of B ? Response format: the label of the selected entry.
**A:** B
(B: 13.2 L/kg, A: 3.77 L/kg)

1. CC[C@H](Nc1ncnc(N)c1-c1ncn(C)n1)c1nc2cccc(Cl)c2c(=O)n1-c1ccc(F)cc1
2. C[C@H](Nc1ncnc(N)c1-c1ncn(C)n1)c1nc2cccc(Cl)c2c(=O)n1C1CC1
**Q:** Which value of Vd is numerically greater: that of 1 or that of 2 ? Response format: the label of the selected entry.
**A:** 1
(1: 3.96 L/kg, 2: 2.51 L/kg)

a. CC[C@H](Nc1ncnc(N)c1-c1ncn(C)n1)c1nc2cccc(C)c2c(=O)n1C1CC1
b. CC[C@H](Nc1ncnc(N)c1-c1noc(C)n1)c1nc2cccc(C)c2c(=O)n1C1CC1
**Q:** Param metric = Vd; output whichever of a , b has the minimum value. Response format: the label of the selected entry.
**A:** a
(a: 2.94 L/kg, b: 6.07 L/kg)
